# Target Of Assay: hERG K+ channel (Homo sapiens)
# Sequence (Q12809 whole entry): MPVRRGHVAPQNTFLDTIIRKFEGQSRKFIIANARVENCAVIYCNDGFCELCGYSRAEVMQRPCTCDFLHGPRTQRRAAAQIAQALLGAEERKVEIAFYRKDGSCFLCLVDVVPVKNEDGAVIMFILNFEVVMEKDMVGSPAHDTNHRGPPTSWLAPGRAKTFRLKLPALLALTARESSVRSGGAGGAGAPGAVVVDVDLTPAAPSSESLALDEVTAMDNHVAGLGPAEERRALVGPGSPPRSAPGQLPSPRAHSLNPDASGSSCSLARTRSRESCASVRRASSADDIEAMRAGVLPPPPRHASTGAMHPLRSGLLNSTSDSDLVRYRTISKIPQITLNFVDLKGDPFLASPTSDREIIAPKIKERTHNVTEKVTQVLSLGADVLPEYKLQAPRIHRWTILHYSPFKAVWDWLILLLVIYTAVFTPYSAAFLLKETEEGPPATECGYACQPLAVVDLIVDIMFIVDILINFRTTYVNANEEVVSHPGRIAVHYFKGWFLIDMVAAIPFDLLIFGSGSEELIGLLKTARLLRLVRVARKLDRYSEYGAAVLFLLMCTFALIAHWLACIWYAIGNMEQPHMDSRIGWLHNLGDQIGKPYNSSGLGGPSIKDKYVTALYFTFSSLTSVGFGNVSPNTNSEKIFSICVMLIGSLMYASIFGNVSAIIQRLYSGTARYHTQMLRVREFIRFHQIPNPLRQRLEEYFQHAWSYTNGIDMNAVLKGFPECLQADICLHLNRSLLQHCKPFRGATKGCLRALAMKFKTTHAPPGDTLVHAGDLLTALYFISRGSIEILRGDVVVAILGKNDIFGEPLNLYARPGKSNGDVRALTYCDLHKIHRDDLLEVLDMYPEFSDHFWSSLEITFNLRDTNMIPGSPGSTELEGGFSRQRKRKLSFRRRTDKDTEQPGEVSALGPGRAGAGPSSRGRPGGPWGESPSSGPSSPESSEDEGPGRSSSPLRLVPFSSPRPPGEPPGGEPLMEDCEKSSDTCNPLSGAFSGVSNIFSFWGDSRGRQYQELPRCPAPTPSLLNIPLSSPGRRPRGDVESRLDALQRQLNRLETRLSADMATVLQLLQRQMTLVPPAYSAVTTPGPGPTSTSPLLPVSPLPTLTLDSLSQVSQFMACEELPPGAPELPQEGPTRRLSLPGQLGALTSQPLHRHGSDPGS
# Measurement Notes: hERG-K^+ channel blocking effect
Record form. Attribute: inhibition at 100 µM. Fill in for each entry.
Be sure to follow the number with its unit.

Worked cases, inhibition at 100 µM given:
Compound: COc1c(N2C[C@@H]3CCCN[C@@H]3C2)c(F)cc2c(=O)c(C(=O)O)cn(C3CC3)c12 [MFLX, moxifloxacin, reference compound]
inhibition at 100 µM: 44.6%

Compound: COc1c(N2CC(CF)C(C)(N)C2)c(F)cc2c(=O)c(C(=O)O)cn([C@@H]3C[C@@H]3F)c12 (single isomer, unassigned)
inhibition at 100 µM: 2.1%

Compound: COc1c(N2CC(F)[C@](C)(N)C2)c(F)cc2c(=O)c(C(=O)O)cn([C@@H]3C[C@@H]3F)c12 (single isomer, unassigned)
inhibition at 100 µM: 4.2%

Compound: Cc1c(N2C[C@H](CF)[C@](C)(N)C2)c(F)cc2c(=O)c(C(=O)O)cn([C@@H]3C[C@@H]3F)c12
inhibition at 100 µM: -0.6%

Okay, next one:
Record summary for `Cc1c(N2C[C@H](CF)[C@](C)(N)C2)c(F)cc2c(=O)c(C(=O)O)cn(C3CC3)c12` : reported inhibition at 100 µM = 4.6%

* * *

# Measurement Notes: in vivo
# Experimental Setup: female, cynomolgus monkey, po, 5 mg/kg
Quantity Measured: Cmax

Could you tell me Cmax for each of these compounds? They are listed below.
1. COc1c(N2C[C@@H](N)C3(CC3)C2)c(F)cc2c(=O)c(C(=O)O)cn([C@@H]3C[C@@H]3F)c12
2. COc1c(N2CC(C)(N)C3(CC3)C2)c(F)cc2c(=O)c(C(=O)O)cn([C@@H]3C[C@@H]3F)c12 (some centres unmarked)

840 ng/mL
2180 ng/mL

* * *

# System: S. pneumoniae, J24 (penicillin-intermediate resistant bacteria)
# Measurement Notes: antibacterial activity (MIC), standard method of Japanese Society of Chemotherapy
# Experimental Setup: Streptococcus pneumoniae
Record form. Attribute: log10 of MIC. Fill in for each entry.
Recall that a logarithmic scale is used here: each number is log10 of MIC in µg/mL.

Compound: COc1c(N2C[C@H](CF)[C@](C)(N)C2)c(F)cc2c(=O)c(C(=O)O)cn(C3CC3)c12
log10 of MIC: -1.00
//
Compound: O=C(O)c1cn(C2CC2)c2cc(N3CCNCC3)c(F)cc2c1=O [CPFX, ciprofloxacin, reference compound]
log10 of MIC: -0.41
//
Compound: COc1c(N2CCNC(C)C2)c(F)cc2c(=O)c(C(=O)O)cn(C3CC3)c12 (stereo not shown) [GTFX, gatifloxacin, reference compound]
log10 of MIC: -0.70
//
Compound: COc1c(N2CC(C)C(C)(N)C2)c(F)cc2c(=O)c(C(=O)O)cn([C@@H]3C[C@@H]3F)c12 (relative stereo)
log10 of MIC: -1.00
//
Compound: Cc1c(N2C[C@H](CF)[C@](C)(N)C2)c(F)cc2c(=O)c(C(=O)O)cn([C@@H]3C[C@@H]3F)c12
log10 of MIC: -1.00

Could you tell me log10 of MIC for each of these compounds? They are listed below.
1. Cc1c(N2CC(C)[C@@](N)(CF)C2)c(F)cc2c(=O)c(C(=O)O)cn([C@@H]3C[C@@H]3F)c12 (stereo partly shown)
2. Cc1c(N2CC3(CC3)[C@](C)(N)C2)ccc2c(=O)c(C(=O)O)cn(C3CC3)c12
3. COc1c(N2C[C@H](C)[C@@](C)(N)C2)c(F)cc2c(=O)c(C(=O)O)cn([C@@H]3C[C@@H]3F)c12 (single isomer, unassigned)
4. COc1c(N2C[C@@H]3CCCN[C@@H]3C2)c(F)cc2c(=O)c(C(=O)O)cn(C3CC3)c12 [MFLX, moxifloxacin, reference compound]
5. C=C1CN(c2c(F)cc3c(=O)c(C(=O)O)cn([C@@H]4C[C@@H]4F)c3c2OC)C[C@]1(C)N
6. Cc1c(N2C[C@H](CF)[C@](C)(N)C2)c(F)cc2c(=O)c(C(=O)O)cn(C3CC3)c12
7. Cc1c(N2CC(F)[C@](C)(N)C2)c(F)cc2c(=O)c(C(=O)O)cn([C@@H]3C[C@@H]3F)c12 (single isomer, unassigned)
8. C[C@H]1COc2c(N3CCN(C)CC3)c(F)cc3c(=O)c(C(=O)O)cn1c23 [LVFX, levofloxacin, reference compound]

[-1.30, -0.70, -1.00, -1.00, -1.00, -1.30, -1.00, -0.11]

Could you tell me log10 of MIC for each of these compounds? They are listed below.
1. Cc1c(N2CC3(CC3)[C@](C)(N)C2)ccc2c(=O)c(C(=O)O)cn([C@@H]3C[C@@H]3F)c12
2. COc1c(N2C[C@@H](N)C3(CC3)C2)c(F)cc2c(=O)c(C(=O)O)cn([C@@H]3C[C@@H]3F)c12
3. C[C@H]1COc2c(N3CC(C)(N)C4(CC4)C3)c(F)cc3c(=O)c(C(=O)O)cn1c23 (stereo partly shown)
4. COc1c(N2CC(CF)C(C)(N)C2)c(F)cc2c(=O)c(C(=O)O)cn([C@@H]3C[C@@H]3F)c12 (single isomer, unassigned)
5. C=C1CN(c2c(F)cc3c(=O)c(C(=O)O)cn([C@@H]4C[C@@H]4F)c3c2OC)C[C@@]1(C)N

1: -0.41; 2: -1.60; 3: -0.70; 4: -1.00; 5: -1.00

Record summary for COc1c(N2CC(C)[C@@](N)(CF)C2)c(F)cc2c(=O)c(C(=O)O)cn([C@@H]3C[C@@H]3F)c12 (stereo partly shown) : reported log10 of MIC = -1.00
